- Tgt: T1, human complement C3b protein (human, UniProt P01024 23-667; P01024 749-1663)
- T1 construct: Purified plasma C3b (Complement Technology, Quidel); Depending on the assay it was captured by an anti-C3d antibody, coated, biotinylated or coupled to beads; also called human C3b; huC3b
- Test details: solution equilibrium titration (SET), ECL detection, Fab
Result type: pKd
The meaning of pKd here: minus log10 of the concentration in molar units.

What value of pKd has been recorded for this entry: MOR09141 Fab (Fab, V domains shown, also called Fab 9141) VH: QVQLVQSGAEVKKPGSSVKVSCKASGGTFSSYTFSWVRQAPGQGLEWMGNILPIFGDANYAQKFQGRVTITADESTSTAYMELSSLRSEDTAVYYCARNKGAFYYMSTYPSLDVWGQGTLVTVSS VL: DIQMTQSPSSLSASVGDRVTITCRASQNINYYLNWYQQKPGKAPKLLIYDAFSLQSGVPSRFSGSGSGTDFTLTISSLQPEDFATYYCQQSIAVPPFTFGQGTKVEIKR
10.00

***
Data request, read-out pKd, for MOR09397 Fab (Fab, V domains shown, also called Fab 9397) VH: QVQLVESGGGLVQPGGSLRLSCAASGFTFSSYWMTWVRQAPGKGLEWVSSIKIKPDGYAASVKGRFTISRDNSKNTLYLQMNSLRAEDTAVYYCARLFYQYFARMDYWGQGTLVTVSS VL: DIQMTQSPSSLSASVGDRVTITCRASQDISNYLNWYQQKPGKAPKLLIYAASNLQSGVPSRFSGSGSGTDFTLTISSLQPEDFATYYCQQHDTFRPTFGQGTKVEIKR
11.70

Look up pKd: MOR09423 Fab (Fab, V domains shown, also called Fab 9423) VH: QVQLVQSGAEVKKPGASVKVSCKASGYTFTGYYINWVRQAPGQGLEWMGIISPNQGTTGYAQKFQGRVTMTRDTSISTAYMELSSLRSEDTAVYYCARGNYDHLDYWGQGTLVTVSS VL: DIQMTQSPSSLSASVGDRVTITCRASQGISNYLNWYQQKPGKAPKLLIYDASTLQSGVPSRFSGSGSGTDFTLTISSLQPEDFATYYCQQDWHTLPVTFGQGTKVEIKR
10.00

These measurements were taken from patent US20100291106A1.
